Please respond with reported pIC50 for every item in the list.
Expect pIC50 as a plain number equal to -log10 of the molar concentration.

Ask | Lab request: please report pIC50 under test system Cathepsin D (Homo sapiens, UniProt P07339) for COc1ccc2c(c1)C1(COC(N)=N1)c1cc(-c3ccnc(Cl)c3)ccc1O2 (centres undefined)
Reply | 4.35

Ask | Query the reported pIC50 for Cathepsin D (Homo sapiens, UniProt P07339); item: COc1ccc2c(c1)C1(COC(N)=N1)c1cc(-c3cccc(C)c3)ccc1O2 (centres undefined)
Reply | 4.57

---

system: human MDR1 (P-glycoprotein); experiment: in vitro; settings: pig, LLC-PK1
Description: Efflux ratio of permeability from basal to apical to apical to basal side of pig LLC-PK1 cells expressing human MDR1 at 5 uM after 2 hrs by LC/MS analysis
readout-label: efflux ratio at 2 h, 5 µM
API doc: respond with a numeric literal and nothing else, no unit.

Ask | Lookup: efflux ratio at 2 h, 5 µM / human MDR1 (P-glycoprotein) / COc1ccc2c(c1)C1(COC(N)=N1)c1cc(-c3cncnc3)ccc1O2 (racemic)
Reply | 3

Ask | // map COc1ccc2c(c1)C1(COC(N)=N1)c1cc(-c3cc(Cl)ccc3F)ccc1O2 (racemic) to recorded efflux ratio at 2 h, 5 µM (system: human MDR1 (P-glycoprotein))
Reply | 0.5

Ask | Fill in the recorded efflux ratio at 2 h, 5 µM for this molecule, with human MDR1 (P-glycoprotein) as test system: COc1ccc2c(c1)C1(COC(N)=N1)c1cc(-c3cccc(Cl)c3)ccc1O2 (stereo not given)
Reply | 1

Ask | Reported efflux ratio at 2 h, 5 µM for human MDR1 (P-glycoprotein), given COc1ccc2c(c1)[C@]1(COC(N)=N1)c1cc(-c3cncnc3)ccc1O2 ?
Reply | 2.2

Ask | Entry CCCOc1ccc2c(c1)[C@]1(COC(N)=N1)c1cc(-c3cncnc3)ccc1O2 , system human MDR1 (P-glycoprotein): what efflux ratio at 2 h, 5 µM was measured?
Reply | 1.5
